Target: Cellular tumor antigen p53 (Homo sapiens) (UniProt P04637)
Sequence (P04637 whole entry, looked up): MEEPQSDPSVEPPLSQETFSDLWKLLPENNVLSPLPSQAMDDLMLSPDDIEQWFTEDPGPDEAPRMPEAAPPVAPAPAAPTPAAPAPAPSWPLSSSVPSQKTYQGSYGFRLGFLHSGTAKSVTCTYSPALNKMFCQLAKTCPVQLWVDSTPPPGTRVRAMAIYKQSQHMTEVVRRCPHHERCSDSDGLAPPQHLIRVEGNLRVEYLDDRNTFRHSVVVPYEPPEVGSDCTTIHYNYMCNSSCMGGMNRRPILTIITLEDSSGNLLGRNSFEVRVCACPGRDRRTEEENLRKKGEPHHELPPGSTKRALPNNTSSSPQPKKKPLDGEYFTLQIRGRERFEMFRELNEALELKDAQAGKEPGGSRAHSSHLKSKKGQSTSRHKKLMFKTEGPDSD
Test: ATG_p53_CIS: Attagene CIS-FACTORIAL HepG2 Assay for human p53 Transcription Factor (AID 2282994)
Settings: HepG2 p53 cis-element reporter, Attagene mRNA; actives raise or lower the signal
Method: ATG_CIS is a cell-based, multiplexed-readout assay that uses HepG2, a human liver cell line, with measurements taken at 24 hours after chemical dosing in a 24-well plate.ATG_p53_CIS is one of 52 assay component(s) measured or calculated from the ATG_CIS assay. […] This assay endpoint, ATG_p53_CIS, was analyzed with bidirectional fitting relative to DMSO as the negative control and baseline of activity. […]
Calls of active or inactive are those of the source. The calls were made as follows: active = hit-call score of the fitted dose curve at least 0.9, where 1 is the maximum; inactive = score below 0.9.
Bench note: report the call from TRUE for active, FALSE for inactive

Q: Could you please tell me the result logged for Cc1cccc(C(C)(C)C)c1O in this assay?
Ans: FALSE

Q: What outcome does the record of this test show for CC1(C)C(=O)N(CO)C(=O)N1CO ?
Ans: FALSE

Q: Given CCCCCCCCCCCCCc1ccccc1 , state the outcome it received in this test.
Ans: FALSE

Q: Status in this test for CC=CC(=O)OCC(C)C ?
Ans: FALSE

Q: Please share the test call associated with C=CCCCCCCCCO .
Ans: FALSE

New cases:
Q: Which outcome did this test record for the compound Nc1ccc(C(=O)O)cc1 ?
Ans: FALSE

Q: Can you look up the reported call for Nc1ccc(C(=O)OCCCOC(=O)c2ccc(N)cc2)cc1 for me?
Ans: FALSE

Q: What classification did C=CC(=O)O[C@H]1C[C@@H]2CC[C@@]1(C)C2(C)C end up with in this test?
Ans: FALSE

Q: Write down the call the test reported for this compound. Item: C=C[C@@]1(C)CC(=O)[C@]2(O)[C@@]3(C)[C@@H](O)CCC(C)(C)[C@@H]3[C@H](O)[C@H](OC(C)=O)[C@@]2(C)O1
Ans: TRUE

Q: What classification did O=S(=O)(O)c1ccc(N=Nc2c(O)ccc3ccccc23)cc1 end up with in this test?
Ans: FALSE

Q: For this compound, state the assay outcome: CCc1cccc(CC)c1
Ans: FALSE

Q: Would you mind telling me which call this test gave CCCCOC(=O)C(C)CC (stereo not given) ?
Ans: FALSE

Q: For C=C1C[C@H]2[C@@H]3C=C(C)C4=CC(=O)CC[C@]4(C)[C@H]3CC[C@]2(C)[C@@]1(OC(C)=O)C(C)=O , which call appears in the assay record?
Ans: FALSE

Q: Please let me know the test result on file for CCc1occc(=O)c1O .
Ans: FALSE

Q: What did this assay record as the result for CCC(C)C(=O)OCCc1ccccc1 (stereo not given) ?
Ans: FALSE

Q: Which result was noted for this compound in the test: CCCCCCOc1ccc(N)cc1
Ans: FALSE

Q: Given CC(C=O)c1ccccc1 (stereo not given) , state the outcome it received in this test.
Ans: FALSE

Q: Fill in: this test's call for CC1=C(O)C(=O)C(C)O1 (stereo not given) is ___
Ans: FALSE

Q: Each compound tested received a call. Report the one for Clc1cccnc1 .
Ans: FALSE

Q: # fetch the recorded call for CCCCCCCCCCCCCC(=O)OC(C)C here
Ans: FALSE

Q: Which outcome was assigned to CCNc1nc(NC(C)(C)C)nc(OC)n1 in this test?
Ans: FALSE

Q: GET /call?item= O=S(=O)(O)c1ccc(Nc2nc(Nc3ccc(C=Cc4ccc(Nc5nc(Nc6ccc(S(=O)(=O)O)cc6)nc(N(CCO)CCO)n5)cc4S(=O)(=O)O)c(S(=O)(=O)O)c3)nc(N(CCO)CCO)n2)cc1 returns the recorded outcome of this test.
Ans: FALSE

Q: Returns: the outcome recorded for C[Si]1(C)O[Si](C)(C)O[Si](C)(C)O[Si](C)(C)O[Si](C)(C)O1 in this assay.
Ans: FALSE

Q: Hello, I am checking results. What call was entered for O=C(Nc1ccccc1)c1cc(Cl)ccc1O ?
Ans: FALSE

Q: Identify the outcome logged in this assay for the compound shown: Oc1ccc(-c2ccccc2)c(Cl)c1
Ans: FALSE

====

read-out: Thrombomodulin, THBD (gene 7056); test: BSK_3C_Thrombomodulin: BioMAP Diversity Plus: 3C Assay for Thrombomodulin Biomarker Activity (AID 2283029); settings: primary human endothelial cells (HUVEC); actives raise or lower the signal
Activity calls are given as the source filed them. Rule for the calls: active = hit-call score of the fitted dose curve at least 0.9, where 1 is the maximum; inactive = score below 0.9.
API: response.call in true (1) = active, false (0) = inactive

Please review the entries below; each comes with its answer.
Q: Hi, do you know how COc1ccc(C(=O)c2ccccc2)c(O)c1 came out in this test?
Ans: false (0)

Q: Outcome? CCCCCCCO
Ans: false (0)

Q: Dear colleague, could you share the recorded outcome for Oc1ccc(/C=C/c2cc(O)cc(O)c2)cc1 when you have a moment?
Ans: false (0)

Q: Assay result, entry CCCCC1C(=O)N(c2ccccc2)N(c2ccccc2)C1=O — outcome?
Ans: false (0)

Q: Hello, I am checking results. What call was entered for C=CC(=O)NCOCCCC ?
Ans: false (0)

***
Q: Lab log entry: O=C(Oc1ccccc1)c1ccccc1C(=O)Oc1ccccc1 — outcome as called in the assay?
Ans: false (0)

Q: // return assay outcome for CC=C(C)C=CC=C(C)C
Ans: true (1)

Q: Hi, sorry to bother you, what did the test record for C=CC(=O)OCC(C)OCC(C)OCC(C)OC(=O)C=C (stereo not given) ?
Ans: false (0)

Q: For C=CC(=O)OCCCCCCOC(=O)C=C , what call appears in the results of this test?
Ans: false (0)

Q: Per the assay record, what outcome was assigned to O=C(O)C(F)(F)C(F)(F)C(F)(F)C(F)(F)C(=O)O ?
Ans: false (0)

====

test: BSK_4H_SRB: Viability Assessment in the BioMAP Diversity Plus: 4H Assay (AID 2283027); conditions: primary human endothelial cells (HUVEC);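 also: cells exposed to compound for 24 h before staining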
Active and inactive are the calls of the source. How the source made its calls: active means hit-call score of the fitted dose curve at least 0.9, where 1 is the maximum; inactive means score below 0.9.
Give your call using only these classes: 1 (yes) for active, 0 (no) for inactive

Past entries and their recorded results:
Q: Test call for this molecule, please: CCOC(=O)/C=C\C(=O)OCC
Ans: 0 (no)

Q: Can you look up the reported call for CC/C=C\C/C=C\C/C=C\CCCCCCCC(=O)OC for me?
Ans: 1 (yes)

Q: Which outcome did this test record for the molecule O=C(O)C(F)(F)C(F)(F)C(F)(F)C(F)(F)C(=O)O ?
Ans: 0 (no)

Q: Which outcome did this test record for the molecule O=C1CCCCCCCCCCCN1 ?
Ans: 0 (no)

Q: Hi, do you know how C1CNCCN1 came out in this test?
Ans: 0 (no)

Okay, now this molecule:
Q: Which outcome was entered for the molecule CC(C)C(=O)OCCc1ccccc1 in this test?
Ans: 0 (no)

====

Assay: ATG_AP_2_CIS: Attagene CIS-FACTORIAL HepG2 Assay for human Activator Protein 2 (AP-2) (AID 2282932)
Conditions: HepG2 AP-2 cis-reporter, Attagene transcription factor profiling; actives raise or lower the signal
Protocol: ATG_CIS is a cell-based, multiplexed-readout assay that uses HepG2, a human liver cell line, with measurements taken at 24 hours after chemical dosing in a 24-well plate.ATG_AP_2_CIS is one of 52 assay component(s) measured or calculated from the ATG_CIS assay. […] This assay endpoint, ATG_AP_2_CIS, was analyzed with bidirectional fitting relative to DMSO as the negative control and baseline of activity. […]
Activity calls are given as the source filed them. How the source made its calls: active means hit-call score of the fitted dose curve at least 0.9, where 1 is the maximum; inactive means score below 0.9.
MEASUREMENT_TYPE: outcome

Solved entries (count: 4):
Q: Read off the recorded outcome for CC(=O)OCc1ccccc1
Ans: inactive

Q: Consider the compound O=C(O)C(F)(F)C(F)(F)C(F)(F)C(F)(F)C(=O)O and give its recorded outcome.
Ans: inactive

Q: Determine from records and report outcome for CCCCNS(=O)(=O)c1ccccc1
Ans: inactive

Q: Input C=CC(=O)NCOCCCC , output reported outcome.
Ans: inactive

***
Q: Entry CC(C)[N+](C)(CCOC(=O)C1c2ccccc2Oc2ccccc21)C(C)C needs its outcome filled in; supply it.
Ans: inactive

====

read-out: Interleukin-8 (IL8), CXCL8 (gene 3576); assay: BSK_3C_IL8: BioMAP Diversity Plus: 3C Assay for Interleukin-8 (IL8) Biomarker Activity (AID 2283020); conditions: primary human endothelial cells (HUVEC); actives raise or lower the signal
Active and inactive are the calls of the source. Rule for the calls: active = hit-call score of the fitted dose curve at least 0.9, where 1 is the maximum; inactive = score below 0.9.
MEASUREMENT_TYPE: outcome

Q: Provide only the value of recorded outcome for CC(CCC(=O)O)(c1ccc(O)cc1)c1ccc(O)cc1
Ans: inactive

Q: Look up and report measured outcome for this entry: Clc1cc(Cl)c(Cl)c(Cl)c1Cl
Ans: inactive

Q: State its outcome: C=CC(=O)NC(C)(C)C
Ans: inactive

====

Biological target: Hepatocyte nuclear factor 6 (Homo sapiens)
Assay: ATG_HNF6_CIS: Attagene CIS-FACTORIAL HepG2 Assay for human Hepatocyte Nuclear Factor 6 (HNF6) (AID 2282952)
Settings: HepG2 Attagene cis-factorial HNF6 reporter transcription; actives raise or lower the signal
Method: ATG_CIS is a cell-based, multiplexed-readout assay that uses HepG2, a human liver cell line, with measurements taken at 24 hours after chemical dosing in a 24-well plate.ATG_HNF6_CIS is one of 52 assay component(s) measured or calculated from the ATG_CIS assay. […] This assay endpoint, ATG_HNF6_CIS, was analyzed with bidirectional fitting relative to DMSO as the negative control and baseline of activity. […]
Active and inactive are the calls of the source. Rule for the calls: active = hit-call score of the fitted dose curve at least 0.9, where 1 is the maximum; inactive = score below 0.9.
// allowed return values: y (active), n (inactive)

Q: Give the logged outcome of this assay for the following molecule: C=C(C)OC(C)=O
Ans: n

Q: Write down the call the test reported for this molecule. Item: CCCCc1ccc(Cl)cc1
Ans: n

Q: What is the recorded call for this molecule in the test? CC1=CCC2CC1C2(C)C (centres undefined)
Ans: n

New cases:
Q: Which result was noted for this molecule in the test: CC(C)(C)NC(=O)[C@H]1CC[C@H]2[C@@H]3CC[C@H]4NC(=O)C=C[C@]4(C)[C@H]3CC[C@]12C
Ans: n

Q: Which outcome did this test record for the molecule C=CC(=O)NCOCCCC ?
Ans: n

Q: Hi team, can someone confirm the assay call for N#Cc1ccc(C2CCCc3cncn32)cc1 (centres undefined) ?
Ans: n

Q: Could you kindly confirm the outcome this assay logged for CCCCCCCCCCCCCCCCCCOS(=O)(=O)O ?
Ans: y

Q: Would you mind telling me which call this test gave Cc1ccc(S(=O)(=O)N=C=O)cc1 ?
Ans: n

Q: Field: outcome | Entry: C=CC(=O)OCCCCCCCCCC
Ans: n
